- target.system: T1, 4H432-AA
- T1 chain: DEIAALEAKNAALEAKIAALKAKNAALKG
- measurement.protocol: two-hybrid library CCmax;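 further: natural log of median RNA to DNA barcode read ratio; higher means stronger binding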
- test.settings: mean of both orientations
reported.metric: interaction score
Could you keep your reply to the number by itself?

Answered examples (2):
DKNAALKAKIAALKAEIAALKAENAALEG [4H3915-AA]: -1.16
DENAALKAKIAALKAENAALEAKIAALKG [4H1878-AA]: -0.557

Recorded result, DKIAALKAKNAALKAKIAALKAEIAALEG [4H3049-AA] , interaction score: -0.00195

Form: binder = DEIAALEAKIAALKAKNAALKAENAALKG [4H380-AA] ; interaction score = -1.71

Entry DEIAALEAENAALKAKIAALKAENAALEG [4H235-AA] — recorded interaction score = -0.27

Record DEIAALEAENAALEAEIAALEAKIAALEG [4H133-AA] , field interaction score: -0.168

Documented interaction score of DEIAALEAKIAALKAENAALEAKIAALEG [4H341-AA] : -1.21

// interaction score lookup, binder = DKNAALKAEIAALEAKIAALEAENAALEG [4H3619-AA] , result: -0.708

Ref: paper PMC10397247
